Test system: MDA-MB-468 breast
Assay Text: NCI-60 one-dose screen, 48 h
Test Conditions: 10 µM unless noted
Description: Growth inhibition of the MDA-MB-468 human Breast tumor cell line is measured as a screen for anti-cancer activity. Cells are grown in 96 well plates and exposed to the test compound for 48 hours. Compounds are tested at a single concentration, which is 10^-5 M for most compounds. The reported endpoint is percent growth (GI% or GIPRCNT), where numbers from 0 - 100% represent growth inhibition, and numbers from -100% - 0 represent cell death. […]
About 83,000 compounds went through this panel and 20% of them were active in at least one assay; those are over-represented in the sample as a whole. Activity calls are given as the source filed them. How the source made its calls: active means growth percent below 10; inactive means the rest.
Hi! Could you answer with just one of these? active, inactive

[[record]]
molecule = "O=C1c2c(c3c4cccnc4[nH]c3c3ccc4ccccc4c23)C(=O)N1O"
answer_label = "inactive"


Exam item: Give the logged outcome of this assay for the following molecule: CC(=O)c1nc2ccccc2n1CC(=O)c1cccc(Cl)c1
Marked response: inactive

Exam item: Give the logged outcome of this assay for the following molecule: COc1cc2oc(-c3cccc(NC(=O)c4ccc5c(c4)OCO5)c3)cc(=O)c2c(OC)c1OC
Marked response: inactive

Exam item: Give the logged outcome of this assay for the following molecule: CN1C(=O)N(C)C2(c3ccccc3)OC(=S)NC12c1ccccc1 (stereo not given)
Marked response: inactive

###

System: HCT-15 colon
Assay Text: NCI-60 one-dose screen, 48 h (100 = growth as untreated, 0 = no growth, -100 = all killed)
Test Conditions: 10 µM
Compounds without any hit were thinned out: in the full panel of roughly 83,000, 20% have a hit.
Give 1 when the value for growth is at least 50%. Give -1 when it is less.

The following molecules have reported results that may help.
[[record]]
molecule = "Cc1ccc(COc2ccc(NC(=O)Nc3ccc(Cl)c(C(F)(F)F)c3)cc2)cc1"
answer_label = 1

[[record]]
molecule = "O=C1NC2C=CC=CC2/C1=C1/SC(=S)N(C2CC(=O)N(c3ccc(Br)cc3)C2=O)C1=O (stereo unspecified)"
answer_label = 1

[[record]]
molecule = "Fc1ccc(/C=C/c2nc3ccccc3n3c(-c4ccc(Cl)cc4)nnc23)cc1"
answer_label = -1

[[record]]
molecule = "O=C(c1ccc(Cl)cc1)C(c1c[nH]c2ccccc12)c1c[nH]c2ccccc12"
answer_label = -1


# next molecule below
Exam item: Record COc1cccc(O)c1/C=C1\SCc2cc3c(OC)cccc3[o+]c21 ; criterion: growth no lower than 50%. Met?
Marked response: 1

###

System: MDA-MB-468 breast
Assay Text: NCI-60 one-dose screen, 48 h
Test Conditions: 10 µM unless noted
Procedure: Growth inhibition of the MDA-MB-468 human Breast tumor cell line is measured as a screen for anti-cancer activity. Cells are grown in 96 well plates and exposed to the test compound for 48 hours. Compounds are tested at a single concentration, which is 10^-5 M for most compounds. The reported endpoint is percent growth (GI% or GIPRCNT), where numbers from 0 - 100% represent growth inhibition, and numbers from -100% - 0 represent cell death. […]
Compounds without any hit were thinned out: in the full panel of roughly 83,000, 20% have a hit. Active and inactive are the calls of the source. How the source made its calls: active means growth percent below 10; inactive means the rest.
Hi! Could you answer with just one of these? active, inactive

The following molecules have reported results that may help.
[[record]]
molecule = "N=C(N)c1ccc(-c2ccc(-c3cncc4ccccc34)s2)s1"
answer_label = "active"

[[record]]
molecule = "COc1cc(CCN=Cc2ccccc2O)c([N+](=O)[O-])cc1OC"
answer_label = "inactive"

[[record]]
molecule = "COC(=O)CCCNC(=O)C(=O)c1c(O)c(O)c(C(C)C)c2cc(C)c(-c3c(C)cc4c(C(C)C)c(O)c(O)c(C(=O)C(=O)NCCCC(=O)OC)c4c3O)c(O)c12"
answer_label = "active"

[[record]]
molecule = "Cn1c(/C(C#N)=C/c2ccc3ccccc3c2)cc2ccccc21"
answer_label = "active"

[[record]]
molecule = "Cc1cc(=O)[nH]c(=O)n1Cc1cn(-c2c3ccccc3nc3ccccc23)nn1"
answer_label = "active"

[[record]]
molecule = "NS(=O)(=O)c1ccc(Nc2nc3n[nH]c(Nc4ccccc4)c3c(=O)[nH]2)cc1"
answer_label = "inactive"


Exam item: Give the logged outcome of this assay for the following molecule: O=C(CN1CCOCC1)Nc1ccc2ncnc(Nc3ccc(OCc4cccc(F)c4)c(Cl)c3)c2c1
Marked response: active

Exam item: Give the logged outcome of this assay for the following molecule: O=C(Cn1cc(CN2C(=O)c3ccc([N+](=O)[O-])cc3C2=O)nn1)Nc1ccccc1Br
Marked response: inactive

Exam item: Give the logged outcome of this assay for the following molecule: Brc1ccc(Nc2nc(Nc3cnc4ccccc4c3)c3[nH]cnc3n2)cc1
Marked response: inactive

Exam item: Give the logged outcome of this assay for the following molecule: CCN(CC)c1ccc(C(=O)c2ccccc2)cc1
Marked response: inactive

Exam item: Give the logged outcome of this assay for the following molecule: O=C(O)CCCCSc1ncnc2nc[nH]c12
Marked response: inactive

Exam item: Give the logged outcome of this assay for the following molecule: COc1cc(OC)cc(-c2cncn2-c2ccc(-c3nc4cc(OC)cc(OC)c4s3)cc2)c1
Marked response: active

###

Tested on: MDA-MB-468 breast
Assay Text: NCI-60 one-dose screen, 48 h (100 = growth as untreated, 0 = no growth, -100 = all killed)
Test Conditions: 10 µM unless noted
Method: Growth inhibition of the MDA-MB-468 human Breast tumor cell line is measured as a screen for anti-cancer activity. Cells are grown in 96 well plates and exposed to the test compound for 48 hours. Compounds are tested at a single concentration, which is 10^-5 M for most compounds. The reported endpoint is percent growth (GI% or GIPRCNT), where numbers from 0 - 100% represent growth inhibition, and numbers from -100% - 0 represent cell death. […]
Compounds without any hit were thinned out: in the full panel of roughly 83,000, 20% have a hit.
Would you kindly list growth for each of these molecules?
Give bare numbers, in %.

[[record]]
molecule = "O=S(=O)(Cc1cccc2c(CS(=O)(=O)c3ccc(Cl)cc3)cccc12)c1ccc(Cl)cc1"
unit = "%"
assay_result = 97


Each of the following entries comes with a recorded value; kindly state growth for each.
1. CCOC(=O)N1CCC(N=C2CSc3nnc(-c4cc(C(F)(F)F)cc(C(F)(F)F)c4)n3N2)CC1
2. COCCCNCC(=O)Nc1c(C)cccc1C
3. Cn1c(=O)c2c(nc(NC3=NS(=O)(=O)c4ccccc43)n2CC(=O)N2CCc3ccccc32)n(C)c1=O
4. Cc1cnc(Nc2ccc(OCCN3CCCC3)cc2)nc1NCc1ccco1
5. CC(C)n1c(/C=C/[C@@H](O)C[C@@H](O)CC(=O)O)c(-c2ccc(F)cc2)c2ccccc21
6. Nc1cc(-c2ccccc2)ccc1O
7. Cc1ccc(Cc2cnc(NC(=O)c3ccc4noc(-c5ccccc5)c4c3)s2)cc1

Marked response:
2.22
112
102
80.8
81.7
93.5
91

Each of the following entries comes with a recorded value; kindly state growth for each.
1. CC(C)c1ccc(C(=O)Nc2sc3c(c2C(N)=O)CCC(=O)C3)cc1
2. CCC1=C[C@]2(C3CC(=O)N(c4ccccc4)C3=O)CC(C(C)(C)C)C[C@@H]2[C@@H]2C(=O)N(c3ccccc3)C(=O)[C@H]12 (stereo not given in full)

Marked response:
[-47.6, 90.2]

###

Test system: MDA-MB-468 breast
Assay Text: NCI-60 one-dose screen, 48 h (100 = growth as untreated, 0 = no growth, -100 = all killed)
Test Conditions: 10 µM unless noted
About 83,000 compounds went through this panel and 20% of them were active in at least one assay; those are over-represented in the sample as a whole.
Classify on growth using lower band: < 40%; central band: ≥ 40% and < 70%; upper band: ≥ 70%

[[record]]
smiles_code = "CC(=NNc1ncnc2ccccc12)c1ccc(S(C)(=O)=O)cc1"
answer_label = "upper band"

[[record]]
smiles_code = "CCN(CC)Cc1cc(Nc2ccnc3ccc(OC)cc23)ccc1O"
answer_label = "lower band"

[[record]]
smiles_code = "COc1cc(-c2cc(=O)oc3cc(O)ccc23)c(OC)c2c1OCO2"
answer_label = "central band"

[[record]]
smiles_code = "CSc1nn2c(-c3ccc4ccccc4c3)ccnc2c1C#N"
answer_label = "central band"

[[record]]
smiles_code = "CC(=O)[C@H]1CC[C@]2(C)[C@@H]1CC[C@@H]1[C@@]3(C)CC(CCC#N)(CCC#N)C(=O)C(C)(C)[C@@H]3CC[C@]12C"
answer_label = "upper band"

[[record]]
smiles_code = "Clc1ccc2oc3c(NCCCN4CCOCC4)c4ccccc4nc3c2c1"
answer_label = "lower band"

[[record]]
smiles_code = "COc1ccc(-n2c(=O)sc3c(Cl)nc(C)nc32)c(OC)c1"
answer_label = "central band"

[[record]]
smiles_code = "Cn1ccnc1C(=O)/C=C/c1ccc(CC(=O)NC2CCCCC2)cc1"
answer_label = "lower band"


# next compound below
Exam item: GET /class?item= CC(C)(C)c1nn(-c2ccccc2)c2c1CC1(CN2Cc2ccc(Cl)cc2)C(=O)c2ccccc2C1=O
Marked response: upper band

Taken from PubChem BioAssay (NCI).
